Experiment: Rat pharmacokinetics, single dose orally (10 mg/kg) or intravenously (5 mg/kg)
Conditions: plasma, po, 10 mg/kg
Measurement type: Cmax (ng/mL)
Please give a number only; it is taken to be in ng/mL.

## Input Cmax lookup needed for Cl.Cl.NC/C=C(\F)CS(=O)(=O)c1cccc2cccnc12.O [PXS-5505] , thanks.
## Output 1000

----------
Assay: 3D cell viability assay (MTS, collagen)
Type: cell-based, mouse
Details: mouse, KPC CAFs embedded in polymerized collagen (3D), PXS-5505 3 (unit inferred), replicates
Measurement type: viability (%)
Use % as the unit, but write only the number.

## Input I would be grateful if you could share the reported viability for Cl.Cl.NC/C=C(\F)CS(=O)(=O)c1cccc2cccnc12.O .
## Output 97.2

----------
Assay: Rat pharmacokinetics, single dose orally (10 mg/kg) or intravenously (5 mg/kg)
Conditions: plasma, po, 10 mg/kg, bioavailability, oral administration, for rodents
Measurement type: bioavailability

## Input Reported bioavailability for Cl.Cl.NC/C=C(\F)CS(=O)(=O)c1cccc2cccnc12.O : what is it?
## Output > 75%

----------
Experiment: Plasma stability
Type: in vitro ADME
Conditions: In vitro (human)
Measurement type: remaining at 1 h (%)
Number in %, nothing else.

## Input Can you look up the measured remaining at 1 h of Cl.Cl.NC/C=C(\F)CS(=O)(=O)c1cccc2cccnc12.O for me?
## Output 97

----------
Test: Rat pharmacokinetics, single dose orally (10 mg/kg) or intravenously (5 mg/kg)
Settings: plasma, po, 10 mg/kg
Measurement type: Tmax
Answer shape: numeric part, then the unit.

## Input I would be grateful if you could share the reported Tmax for Cl.Cl.NC/C=C(\F)CS(=O)(=O)c1cccc2cccnc12.O .
## Output 48 min

----------
Molecular target: Recombinant MAO-B (Homo sapiens)
Sequence (P27338 whole entry): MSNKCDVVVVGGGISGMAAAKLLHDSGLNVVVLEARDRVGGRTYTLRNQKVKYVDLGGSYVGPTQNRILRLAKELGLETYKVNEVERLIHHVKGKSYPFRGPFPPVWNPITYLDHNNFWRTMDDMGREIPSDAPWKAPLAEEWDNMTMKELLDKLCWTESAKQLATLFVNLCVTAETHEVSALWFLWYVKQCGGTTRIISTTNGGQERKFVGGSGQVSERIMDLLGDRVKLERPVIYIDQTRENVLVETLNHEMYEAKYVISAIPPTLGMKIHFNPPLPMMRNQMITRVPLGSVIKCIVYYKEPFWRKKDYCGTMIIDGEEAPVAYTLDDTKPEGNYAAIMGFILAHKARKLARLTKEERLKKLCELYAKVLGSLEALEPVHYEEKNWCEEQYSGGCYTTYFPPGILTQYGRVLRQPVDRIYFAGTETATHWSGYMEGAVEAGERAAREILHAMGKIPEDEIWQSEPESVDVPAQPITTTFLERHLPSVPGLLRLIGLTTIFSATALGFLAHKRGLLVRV
Test: IC50 determination against other human amine oxidases
Measurement type: IC50

## Input Requested read-out: IC50. Entry: Cl.Cl.NC/C=C(\F)CS(=O)(=O)c1cccc2cccnc12.O [PXS-5505]
## Output > 30 µM

----------
Target: DAO (Homo sapiens)
Sequence (P19801 20-751): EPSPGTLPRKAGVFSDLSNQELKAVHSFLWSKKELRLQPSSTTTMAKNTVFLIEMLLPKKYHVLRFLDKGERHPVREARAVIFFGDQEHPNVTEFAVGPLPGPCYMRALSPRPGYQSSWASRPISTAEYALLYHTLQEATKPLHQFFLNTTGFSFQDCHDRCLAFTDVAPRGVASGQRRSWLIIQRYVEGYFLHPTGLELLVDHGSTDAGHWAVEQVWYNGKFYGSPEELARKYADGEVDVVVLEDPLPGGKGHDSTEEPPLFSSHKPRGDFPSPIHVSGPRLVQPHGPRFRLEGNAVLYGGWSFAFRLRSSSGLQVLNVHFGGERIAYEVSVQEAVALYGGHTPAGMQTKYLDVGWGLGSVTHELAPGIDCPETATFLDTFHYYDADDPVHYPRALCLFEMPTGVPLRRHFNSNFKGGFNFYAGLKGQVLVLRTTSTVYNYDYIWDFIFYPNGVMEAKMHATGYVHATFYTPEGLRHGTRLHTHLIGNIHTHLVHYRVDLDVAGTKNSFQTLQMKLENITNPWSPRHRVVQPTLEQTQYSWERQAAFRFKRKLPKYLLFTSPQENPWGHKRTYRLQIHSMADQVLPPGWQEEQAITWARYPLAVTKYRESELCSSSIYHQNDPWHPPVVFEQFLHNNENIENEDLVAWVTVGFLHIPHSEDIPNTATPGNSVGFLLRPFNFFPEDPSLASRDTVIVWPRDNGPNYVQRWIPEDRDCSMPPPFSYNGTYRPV
Test: IC50 determination against other human amine oxidases
pIC50: −log10 of the molar value.
Measurement type: pIC50

## Input Give the measured pIC50 of Cl.Cl.NC/C=C(\F)CS(=O)(=O)c1cccc2cccnc12.O .
## Output < 4.52

----------
Test: 2D cell viability assay (MTS)
Format: cell-based, mouse
Details: mouse, KPC CAFs (2D culture), CAFs; PXS-5505 100 (unit inferred); replicates
Measurement type: viability (%)
Numbers only; they are read as %.

## Input Request the reported viability associated with Cl.Cl.NC/C=C(\F)CS(=O)(=O)c1cccc2cccnc12.O
## Output 89.7

----------
Assay: Rat pharmacokinetics, single dose orally (10 mg/kg) or intravenously (5 mg/kg)
Conditions: plasma, po, 10 mg/kg, Bioavailability (F)
Measurement type: bioavailability
Please don't drop the unit; write it after the number.

## Input Using the record for Cl.Cl.NC/C=C(\F)CS(=O)(=O)c1cccc2cccnc12.O , report its bioavailability.
## Output 75%

----------
Target: Recombinant LOXL-3 (Homo sapiens)
Sequence (P58215 26-753): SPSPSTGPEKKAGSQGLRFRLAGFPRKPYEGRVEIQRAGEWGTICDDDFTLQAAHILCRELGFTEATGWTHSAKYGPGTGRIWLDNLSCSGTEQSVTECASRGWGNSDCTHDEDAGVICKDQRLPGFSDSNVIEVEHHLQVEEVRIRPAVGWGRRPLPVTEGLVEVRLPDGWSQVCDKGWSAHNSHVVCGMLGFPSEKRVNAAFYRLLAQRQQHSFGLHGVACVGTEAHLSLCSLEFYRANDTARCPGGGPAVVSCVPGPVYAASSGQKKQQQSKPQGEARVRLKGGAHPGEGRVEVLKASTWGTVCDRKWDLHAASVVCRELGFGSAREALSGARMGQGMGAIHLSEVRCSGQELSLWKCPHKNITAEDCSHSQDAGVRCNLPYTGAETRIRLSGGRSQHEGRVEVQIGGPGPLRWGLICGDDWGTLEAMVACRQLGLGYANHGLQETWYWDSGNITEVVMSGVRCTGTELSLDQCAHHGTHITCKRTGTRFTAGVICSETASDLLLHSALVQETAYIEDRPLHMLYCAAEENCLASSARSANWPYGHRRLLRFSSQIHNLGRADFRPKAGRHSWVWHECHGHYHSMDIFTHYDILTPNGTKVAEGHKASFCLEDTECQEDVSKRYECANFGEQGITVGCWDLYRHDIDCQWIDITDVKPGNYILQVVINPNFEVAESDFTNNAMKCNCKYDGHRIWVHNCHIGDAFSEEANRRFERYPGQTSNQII
Assay: Lysyl oxidase enzymatic activity, fluorescence-based assay, IC50
Measurement type: pIC50
pIC50 is a log-scale quantity: -log10 of the concentration expressed in molar.

## Input pIC50 lookup needed for Cl.Cl.NC/C=C(\F)CS(=O)(=O)c1cccc2cccnc12.O , thanks.
## Output 5.74
